Measured % Inhibition accompanies every entry in the list below.
# Target: MICB*005 on HCC1534 cells (human); also: test concentration or dose not given here
# Protocol Summary: cell-based or functional assay
Respond numerically; units are % and should not be typed.

• 13A9v6 (antibody, IgG1, V domains shown, humanized variant of 13A9) VH: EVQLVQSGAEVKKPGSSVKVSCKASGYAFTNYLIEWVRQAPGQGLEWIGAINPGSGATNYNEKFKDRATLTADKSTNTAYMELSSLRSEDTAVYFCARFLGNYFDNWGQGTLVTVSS VL: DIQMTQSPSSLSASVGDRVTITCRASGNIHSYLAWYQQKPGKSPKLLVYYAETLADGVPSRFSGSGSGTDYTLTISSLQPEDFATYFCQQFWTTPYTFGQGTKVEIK = 6
• 13A9v3 (antibody, IgG1, V domains shown, humanized variant of 13A9) VH: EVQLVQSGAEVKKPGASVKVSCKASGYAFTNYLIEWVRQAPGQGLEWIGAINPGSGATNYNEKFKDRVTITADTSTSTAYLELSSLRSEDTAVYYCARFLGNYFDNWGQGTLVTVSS VL: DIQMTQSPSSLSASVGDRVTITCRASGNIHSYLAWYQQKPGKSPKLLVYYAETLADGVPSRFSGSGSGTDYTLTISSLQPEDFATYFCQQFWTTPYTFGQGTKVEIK = 42
• 6E1.1.12 (antibody, V domains shown, mouse variable domains) VH: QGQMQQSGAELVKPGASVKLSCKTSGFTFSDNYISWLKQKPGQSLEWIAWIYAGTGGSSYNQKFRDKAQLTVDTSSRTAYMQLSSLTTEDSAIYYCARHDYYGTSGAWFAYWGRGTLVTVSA VL: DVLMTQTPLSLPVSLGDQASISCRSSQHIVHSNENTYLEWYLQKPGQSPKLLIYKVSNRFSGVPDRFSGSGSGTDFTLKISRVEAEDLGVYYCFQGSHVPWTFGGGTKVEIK = 58
• 1D5v17 (antibody, IgG1, V domains shown, humanized variant of 1D5) VH: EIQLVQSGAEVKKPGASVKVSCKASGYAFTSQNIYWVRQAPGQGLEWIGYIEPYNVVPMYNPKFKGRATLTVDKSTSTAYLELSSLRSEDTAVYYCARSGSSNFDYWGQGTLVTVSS VL: DIQMTQSPSSLSASVGDRVTITCSASSSISSHYLHWYQQKPGKSPKLLIYRTSNLASGVPSRFSGSGSGTDYTLTISSLQPEDFATYYCQQGSSLPLTFGQGTKVEIK = 50
• 13A9v1 (antibody, IgG1, V domains shown, humanized variant of 13A9) VH: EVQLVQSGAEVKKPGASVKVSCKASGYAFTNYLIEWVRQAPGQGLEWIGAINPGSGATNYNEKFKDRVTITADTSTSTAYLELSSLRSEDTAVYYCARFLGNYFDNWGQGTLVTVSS VL: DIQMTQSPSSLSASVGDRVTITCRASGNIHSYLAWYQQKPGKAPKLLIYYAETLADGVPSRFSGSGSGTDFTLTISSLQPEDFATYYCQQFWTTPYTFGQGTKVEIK = 43

Query: % Inhibition; subject: 1D5v27 (antibody, IgG1, V domains shown, humanized variant of 1D5) VH: EIQLVQSGAEVKKPGASVKVSCKASGYAFTSQNIYWVRQAPGQGLEWIGYIEPYNVVPAYNPKFKGRATLTVDKSTSTAYLELSSLRSEDTAVYYCARSGSSNFDYWGQGTLVTVSS VL: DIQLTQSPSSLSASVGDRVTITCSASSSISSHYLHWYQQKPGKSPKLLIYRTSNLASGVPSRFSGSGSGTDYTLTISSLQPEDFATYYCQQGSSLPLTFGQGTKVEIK -8

Query: % Inhibition; subject: 1D5v13 (antibody, IgG1, V domains shown, humanized variant of 1D5) VH: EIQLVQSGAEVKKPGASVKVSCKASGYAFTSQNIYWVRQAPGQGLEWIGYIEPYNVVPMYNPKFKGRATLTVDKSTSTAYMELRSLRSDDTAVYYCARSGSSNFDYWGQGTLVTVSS VL: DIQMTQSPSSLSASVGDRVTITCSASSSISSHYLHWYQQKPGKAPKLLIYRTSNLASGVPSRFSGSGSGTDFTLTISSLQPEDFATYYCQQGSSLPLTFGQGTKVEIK 43

Query: % Inhibition; subject: 13A9 (m IgG2a, CHO) (antibody, V domains shown) VH: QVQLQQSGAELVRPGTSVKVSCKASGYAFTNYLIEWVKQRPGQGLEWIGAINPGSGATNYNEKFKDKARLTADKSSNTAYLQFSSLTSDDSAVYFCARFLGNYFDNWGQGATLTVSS VL: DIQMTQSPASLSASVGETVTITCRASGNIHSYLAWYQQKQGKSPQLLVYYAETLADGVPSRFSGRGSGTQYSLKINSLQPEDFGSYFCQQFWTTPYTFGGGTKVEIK 60
